- protocol summary: label from the status in PepcDB records
assay metric: protein production

construct sequence: MLIVSGCSSSQNNNGSGKSESKDSRVIHDEEGKTTVSGTPKRVVVLELSFLDAVHNLGITPVGIADDNKKDMIKKLVGSSIDYTSVGTRSEPNLEVISSLKPDLIIADAERHKNIYKQLKKIAPTIELKSREATYDETIDSFTTIAKALNKEDEGKEKLAEHKKVINDLKAELPKDENRNIVLGVARADSFQLHTSSSYDGEIFKMLGFTHAVKSDNAYQEVSLEQLSKIDPDILFISANEGKTIVDEWKTNPLWKNLKAVKNGQVYDADRDTWTRFRGIKSSETSAKDVLKKVYNK
meas value: failed
--
construct sequence: MFSIIWMLFTPLLLLCGIAGGIFLIVTGIKYRKLLVGLMGLLSLSFVTLPFVLLSVGIHIDTIFPIPTALYWTLFSLTGLLAGVSGVQAKIKSIRNMGFIIFTIGILGVIFWELMSVGDSFYI
meas value: failed
--
construct sequence: MPSQDYLRVLNPSLSGPTPIAFIILALISAGLLIIIWRNRDLISTDNLRGKIIFIVISAALIFTFGRISFALSEVLIFLWALSILWIRGNTDNIEMNLAMAAWVLAYLYMHSFHPVKADRYIITVLPALAYAISLSLNNLSALMRSRRASTVLSIAVTLLMVSSAIHYTAGWPQEYGIVKGERSGAWLMNHDPSYRDRVIAADRGPAFTWYLGDYVFTRIIHPQRRELSLKYFYEVNPDYYIFWTGKTELPEGYRVIYSRDGVPLPGRFSRYAGILPLRYRIQWMLR
meas value: failed
